Sourced from ChEMBL document CHEMBL3885861

# Species on record: Rattus norvegicus
# MEASUREMENT DESCRIPTION: Open TG-GATES - Regimen: Single
# Type: toxicity, organism-based, Sprague-Dawley
# Parameters: regimen Single, gender Male, age 6 weeks
# SETUP CONDITIONS: in vivo, po, 0 mg/kg, 3 h, tissue Plasma, route gavage, dose level Control
For each of the compounds below, state its PL.
# number only, unit mg/dL dropped from output

Asked: For the compound S=C=Nc1cccc2ccccc12 [1-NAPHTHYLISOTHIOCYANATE] , give its reported PL.
Given back: 161.6

Asked: Specify measured PL for `C=CCO` .
Given back: 176.2

Asked: Give the measured PL for COc1ccc(Cl)cc1C(=O)NCCc1ccc(S(=O)(=O)NC(=O)NC2CCCCC2)cc1 [GLYBURIDE]
Given back: 187.6

Asked: Read the entry `O=C1NC(=O)C(c2ccccc2)(c2ccccc2)N1` and write its reported PL.
Given back: 145.2

* * *

Exercise: state measured Neu for each of the molecules provided.
# Organism: Rattus norvegicus
# MEASUREMENT DESCRIPTION: Open TG-GATES - Regimen: Daily Repeat
# Assay type: toxicity, organism-based, Sprague-Dawley
# Design: regimen Daily Repeat, gender Male, age 6 weeks
# SETUP CONDITIONS: in vivo, po, 0 mg/kg, […], tissue Blood, route gavage, dose level Control, time 14 day
The figure you give is taken to be in %; do not add the unit.

Asked: Annotate the molecule `Cn1cnc([N+](=O)[O-])c1Sc1ncnc2nc[nH]c12` with its measured Neu.
Given back: 10

Asked: Specify Neu for COc1ccc(O)c(C(C)(C)C)c1.COc1ccc(O)cc1C(C)(C)C [BUTYLATED HYDROXYANISOLE] and stop.
Given back: 18.2

Asked: Provide measured Neu value, entry: `Cn1c(=O)c2c(ncn2C)n(C)c1=O`
Given back: 11.4

Asked: Output Neu of `Cc1cnc(NC(=O)C2=C(O)c3ccccc3S(=O)(=O)N2C)s1`
Given back: 16.8

Asked: Item COc1ccc(Cl)cc1C(=O)NCCc1ccc(S(=O)(=O)NC(=O)NC2CCCCC2)cc1 [GLYBURIDE] : provide Neu
Given back: 16.4

* * *

# Organism: Rattus norvegicus
# MEASUREMENT DESCRIPTION: Open TG-GATES - Regimen: Single
# Format: toxicity, organism-based, Sprague-Dawley
# Design: regimen Single, gender Male, age 6 weeks
# SETUP CONDITIONS: in vivo, po, 0 mg/kg, 6 h, tissue Plasma, route gavage, dose level Control
For each entry below, report its AST value.
Note: unit IU/L is implicit; provide only the numeric part.

Asked: Please give measured AST of the following entry: S=C=Nc1cccc2ccccc12 [1-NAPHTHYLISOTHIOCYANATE]
Given back: 71.8

Asked: Consider the molecule Cc1cnc(NC(=O)C2=C(O)c3ccccc3S(=O)(=O)N2C)s1 [MELOXICAM] and give its recorded AST.
Given back: 61.6

Asked: State its AST: CS(=O)(=O)Nc1ccc([N+](=O)[O-])cc1Oc1ccccc1 [NIMESULIDE]
Given back: 63.2

Asked: Specify AST for O=C1NC(=O)C(c2ccccc2)(c2ccccc2)N1 [PHENYTOIN] and stop.
Given back: 67.6

Asked: Supply reported AST belonging to this molecule: COc1ccc(O)c(C(C)(C)C)c1.COc1ccc(O)cc1C(C)(C)C [BUTYLATED HYDROXYANISOLE]
Given back: 67.8

Asked: Using known records, supply AST for O=C1CN(/N=C/c2ccc(-c3ccc([N+](=O)[O-])cc3)o2)C(O)=N1 [DANTROLENE]
Given back: 59.6

Asked: Give recorded AST. Cc1cccc(Nc2cc(Cl)nc(SCC(=O)O)n2)c1C [PIRINIXIC ACID]
Given back: 74.4

Asked: Name the recorded AST of the molecule listed here: C=CCO [ALLYL ALCOHOL]
Given back: 62.6

Asked: Dear colleague, please send me the reported AST for COc1ccc(Cl)cc1C(=O)NCCc1ccc(S(=O)(=O)NC(=O)NC2CCCCC2)cc1 [GLYBURIDE] when you can.
Given back: 67.4

Asked: Return value of AST for input Cn1cnc([N+](=O)[O-])c1Sc1ncnc2nc[nH]c12 [AZATHIOPRINE] , no commentary.
Given back: 70.8
